Reference source: PubChem BioAssay (NCI)

Tested on: IGROV1 ovarian
Assay Text: NCI-60 one-dose screen, 48 h (100 = growth as untreated, 0 = no growth, -100 = all killed)
Details: 10 µM unless noted
The panel holds about 83,000 compounds, 20% with a hit somewhere; the sample as a whole holds those more often.
Please provide measured growth for the entries that follow.
Give bare numbers, in %.

Please give growth for each item listed below.
1. CC[C@H](C)[C@@H]([C@@H](CC(=O)N1CCC[C@H]1[C@H](OC)[C@@H](C)C(=O)N[C@H](C)[C@@H](O)c1ccccc1)OC)N(C)C(=O)[C@@H](NC(=O)[C@@H](NC)C(C)C)C(C)C
2. COC(=O)[C@@H](C)C[C@H](Cc1ccccc1)NC(=O)c1cccc([C@@H](C[C@H](C(C)C)N(C)C(=O)[C@@H](NC(=O)[C@H]2CCCCN2C)C(C)C)OC(C)=O)n1

Response:
1: 18.1; 2: 26.8

Give me growth for each of these compounds, listed below.
1. Nc1ccc2c(c1)oc1ccccc12
2. CC(=O)Oc1ccccc1C(=O)NCCC[Se]C#N

Response:
1: 110; 2: 10.8

* * *

System: CCRF-CEM leukemia
Assay Text: NCI-60 one-dose screen, 48 h (100 = growth as untreated, 0 = no growth, -100 = all killed)
Details: 10 µM unless noted
The panel holds about 83,000 compounds, 20% with a hit somewhere; the sample as a whole holds those more often.
Measurement Kind: growth (%)
Answers are plain numbers, in %.

Past entries and their recorded results:
INSERT INTO measurements (compound, display_unit, reported) VALUES
  ('Brc1ccc2c(c1)c(-c1nc(-c3c[nH]c4ncccc34)cs1)cn2CCN1CCOCC1', '%', 45.8),
  ('C[n+]1c(/C=C/c2ccc(N(CCCl)CCCl)cc2)sc2ccccc21', '%', 27.9),
  ('CN1C(=O)C23CC4(C56CC78SSC(CO)(C(=O)N7C5Nc5ccccc56)N(C)C8=O)c5ccccc5NC4N2C(=O)C1(CO)SS3 (stereo not drawn)', '%', -11.2),
  ('c1cc2c(c3c1CCNC3)OCO2', '%', 124),
  ('CC(C)(C)N1CC1C#N (stereo not drawn)', '%', 101),
  ('CCn1c2ccccc2c2cc(C(=O)c3cccc4c3CCCN4)ccc21', '%', 120),
  ('ClCCN(CCCl)c1nc(Cl)c(C2CC(c3ccccc3)=NN2c2cc(Cl)cc(Cl)c2)s1 (stereo not drawn)', '%', 102),
  ('Clc1ccc(COC(Cn2ccnc2)c2ccc(Cl)cc2Cl)cc1 (stereo not drawn)', '%', 30.6);

Would you be so kind as to report growth for each listed record?
1. Oc1ccc2c3c1OC1[C@@H](O)CC[C@@]4(O)[C@@H](C2)N(CC2CCC2)CC[C@]314 (stereo partly drawn)
2. N#CC1(C#N)C(c2ccc(N(CCCl)CCCl)cc2)OC23CCCCC2C1(C#N)C(=N)O3 (stereo not drawn)
3. ClCCN(CCCl)c1ccc(OCc2ccccc2)cc1
4. CNC12C3C4C1C1C2C3C41C(=O)N[C@H](C(=O)N(C)[C@H](C[C@@H](OC(C)=O)c1nc(C(=O)N[C@@H](Cc2ccccc2)C[C@H](C)C(=O)OC)cs1)C(C)C)C1CC1 (stereo partly drawn)
5. CC[C@H](C)[C@H](NC(=O)C12C3C4C1C1C2C3C41NC)C(=O)N(C)[C@H](C[C@@H](OC(C)=O)c1nc(C(=O)N[C@@H](Cc2ccccc2)C[C@H](C)C(=O)OC)cs1)C(C)C (stereo partly drawn)
6. CCOC(=O)[C@@H](C)C[C@H](Cc1ccccc1)NC(=O)c1csc([C@@H](C[C@H](C(C)C)N(C)C(=O)[C@@H](NC(=O)[C@H]2CCCCN2C)C(C)(C)C)OC(C)=O)n1
7. COC(=O)[C@@H](C)C[C@H](Cc1cn(C)c2ccccc12)NC(=O)c1csc([C@@H](C[C@H](C(C)C)N(C)C(=O)[C@@H](NC(=O)[C@H]2CCCCN2C)C(C)C)OC(C)=O)n1

Response:
[97.5, 77, 14.4, -1.11, 13.2, 1.8, 10.8]

Count: 6. Required value per item: growth.
1. CCCCNC(c1ccc(Cl)cc1)C(O)c1ccc(Cl)cc1 (stereo not drawn)
2. C[C@]12CCc3sc(-c4ccccc4O)nc3C1=CC[C@@H]1[C@@H]2CC[C@]2(C)C(=O)CC[C@@H]12
3. Nc1cc2nc3ccccc3nc2cc1N
4. CC[C@H](C)[C@H](NC(=O)[C@H]1CCCCN1C)C(=O)N(C)[C@H](C[C@@H](OC(C)=O)c1nc(C(=O)N[C@@H](Cc2ccccc2)C[C@H](C)C(=O)OC)cs1)C(C)C
5. O=C(NCCN1CC1)C(=O)NCCN1CC1
6. O=C1CNC(c2ccccc2)c2cc(Cl)ccc2N1 (stereo not drawn)

Response:
[29.7, 118, 94, 4.02, 56.8, 94.2]

Take each entry in turn and give its growth.
1. O=C1C(Cl)=C(N2CCOCC2)C(=O)c2ccccc21
2. Cc1ccc(C(=O)NCCCOc2ccc(N3C(N)=NC(N)=NC3(C)C)cc2Cl)cc1S(=O)(=O)F

Response:
1: -27.6; 2: 55.1
